- target or test system: hDP/Gqs5 (Homo sapiens)
- Construct: expressed in transfected cells; host or cells: HEK-293(EBNA) cells
- Sequence (Q13258 1-359): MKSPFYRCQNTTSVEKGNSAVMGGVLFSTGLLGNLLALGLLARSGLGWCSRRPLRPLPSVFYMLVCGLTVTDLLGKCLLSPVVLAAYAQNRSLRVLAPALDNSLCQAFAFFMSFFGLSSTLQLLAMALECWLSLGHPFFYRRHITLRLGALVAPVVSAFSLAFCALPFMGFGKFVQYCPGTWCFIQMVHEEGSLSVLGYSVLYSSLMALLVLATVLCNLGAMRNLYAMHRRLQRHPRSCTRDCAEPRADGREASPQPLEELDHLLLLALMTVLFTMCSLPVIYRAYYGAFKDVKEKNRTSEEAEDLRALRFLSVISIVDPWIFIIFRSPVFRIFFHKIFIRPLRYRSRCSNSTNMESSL
- experimental protocol: FLIPR calcium signal, HEK-293(EBNA) cells
- Assay type: cell-based
- study conditions: Table 1, first part; triplicate; read-out: functional data (EC50) hDP
assay readout: EC50

O=C(O)CCCCCC[C@H]1C(=O)CC[C@@H]1COc1ccccc1    > 10 µM
O=C(O)CCC/C=C\C[C@@H]1[C@@H](COc2ccccc2)[C@H](O)C[C@H]1Cl    > 10 µM

Kindly consider the entry below.
The compound identified as `O=C(O)CCCCCC[C@@H]1[C@@H](COc2ccccc2)[C@H](O)C[C@H]1Cl` registered its EC50 at > 10 µM
